The measured values listed here are drawn from patent US10745416B2.

Molecular target: FYN (Homo sapiens, UniProt P06241)
Construct: purchased Reaction Biology Corporation (assay run at the CRO)
Sequence (P06241 whole entry): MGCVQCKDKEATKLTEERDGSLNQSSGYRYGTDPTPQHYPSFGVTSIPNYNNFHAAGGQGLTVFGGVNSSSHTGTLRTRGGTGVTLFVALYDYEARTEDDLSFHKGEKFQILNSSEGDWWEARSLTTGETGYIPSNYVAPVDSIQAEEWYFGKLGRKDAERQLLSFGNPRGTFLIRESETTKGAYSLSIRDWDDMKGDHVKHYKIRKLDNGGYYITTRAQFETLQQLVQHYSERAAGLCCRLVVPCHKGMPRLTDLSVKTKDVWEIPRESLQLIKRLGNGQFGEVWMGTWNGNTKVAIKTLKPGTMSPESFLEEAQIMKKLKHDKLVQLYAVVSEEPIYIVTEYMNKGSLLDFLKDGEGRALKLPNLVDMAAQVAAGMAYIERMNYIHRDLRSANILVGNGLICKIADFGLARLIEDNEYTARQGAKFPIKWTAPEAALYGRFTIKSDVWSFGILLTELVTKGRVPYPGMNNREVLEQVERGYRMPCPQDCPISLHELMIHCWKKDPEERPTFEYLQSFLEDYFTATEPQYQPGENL
Assay: Biochemical kinase assay (Reaction Biology, 33P ATP)
Settings: 10 μM ATP
observation-type: IC50 (nM)
Give just the numeric value; nM need not be written.

Under FYN (Homo sapiens, UniProt P06241): report IC50 of `C[C@H]1CNC(=O)c2cnn3cc4c(nc23)N(Cc2cc(F)ccc2O1)[C@@H]1CCC[C@@H]1O4` .
1.81

Specify the recorded IC50 for `C[C@H]1CNC(=O)c2cnn3cc4c(nc23)N(Cc2cc(F)cnc2O1)[C@@H]1CCC[C@@H]1O4` , system: FYN (Homo sapiens, UniProt P06241).
1.94

----------
Test system: KM12 cell (TPM3-TRKA)
Assay: Cell proliferation assay (CellTiter-Glo, 72 hours)
Type: cell-based, human
Conditions: Homo sapiens, KM12, anti-cell proliferation
Consider the cut-off 4 nM. If the recorded IC50 is strictly smaller, the label is Y; if not, the label is N.

O=C1NCC2(CCC2)COc2ncc(F)cc2CN2c3nc4c1cnn4cc3O[C@H]1CCC[C@H]12 [Compound 23] :: N
CC(=O)N1C[C@H]2Oc3cn4ncc5c4nc3N(Cc3cc(F)cnc3O[C@@H](C)CNC5=O)[C@H]2C1 [Compound 37] :: N
CC1(C)CCOc2ncc(F)cc2CN2c3nc4c(cnn4cc3O[C@H]3CCC[C@H]32)C(=O)N1 [Compound 34] :: N
O=C1NCC2(CC2)COc2ncc(F)cc2CN2c3nc4c1cnn4cc3O[C@H]1CCC[C@H]12 [Compound 20] :: Y
O=C1NC[C@@H](O)COc2ncc(F)cc2CN2c3nc4c1cnn4cc3O[C@H]1CCC[C@H]12 [Compound 43] :: N

In the record for C[C@H]1CNC(=O)c2cnn3cc4c(nc23)N(Cc2cc(F)ccc2O1)[C@@H]1CCC[C@H]1O4 [Compound 2] , is IC50 less than 4 nM?
N

A record lists CC1CNC(=O)c2cnn3cc4c(nc23)N(Cc2cc(F)cnc2OC1)[C@@H]1CCC[C@@H]1O4 (some centres unmarked) [Compound 29] . Is its IC50 below 4 nM?
Y

Find out if reported IC50 for C[C@H]1CNC(=O)c2cnn3cc4c(nc23)N(Cc2cc(F)cnc2O1)[C@@H]1CC[C@@H]1O4 [Compound 8] is less than 4 nM
Y

Determine if O=C1NC2(CC2)COc2ncc(F)cc2CN2c3nc4c1cnn4cc3O[C@H]1CCC[C@H]12 [Compound 18] shows IC50 strictly lower than 4 nM.
N

Strictly below 4 nM: is that where IC50 of O=C1NC2(CCC2)COc2ncc(F)cc2CN2c3nc4c1cnn4cc3O[C@H]1CCC[C@H]12 [Compound 22] sits?
N

----------
Biological target: BaF3 KIF5B-RET_V804M (Homo sapiens, UniProt P07949, V804M, cells depend on it)
Construct: fused on or other part: P33176 (Kinesin-1 heavy chain)
Sequence (P07949 whole entry V804M, the tested form may be a part): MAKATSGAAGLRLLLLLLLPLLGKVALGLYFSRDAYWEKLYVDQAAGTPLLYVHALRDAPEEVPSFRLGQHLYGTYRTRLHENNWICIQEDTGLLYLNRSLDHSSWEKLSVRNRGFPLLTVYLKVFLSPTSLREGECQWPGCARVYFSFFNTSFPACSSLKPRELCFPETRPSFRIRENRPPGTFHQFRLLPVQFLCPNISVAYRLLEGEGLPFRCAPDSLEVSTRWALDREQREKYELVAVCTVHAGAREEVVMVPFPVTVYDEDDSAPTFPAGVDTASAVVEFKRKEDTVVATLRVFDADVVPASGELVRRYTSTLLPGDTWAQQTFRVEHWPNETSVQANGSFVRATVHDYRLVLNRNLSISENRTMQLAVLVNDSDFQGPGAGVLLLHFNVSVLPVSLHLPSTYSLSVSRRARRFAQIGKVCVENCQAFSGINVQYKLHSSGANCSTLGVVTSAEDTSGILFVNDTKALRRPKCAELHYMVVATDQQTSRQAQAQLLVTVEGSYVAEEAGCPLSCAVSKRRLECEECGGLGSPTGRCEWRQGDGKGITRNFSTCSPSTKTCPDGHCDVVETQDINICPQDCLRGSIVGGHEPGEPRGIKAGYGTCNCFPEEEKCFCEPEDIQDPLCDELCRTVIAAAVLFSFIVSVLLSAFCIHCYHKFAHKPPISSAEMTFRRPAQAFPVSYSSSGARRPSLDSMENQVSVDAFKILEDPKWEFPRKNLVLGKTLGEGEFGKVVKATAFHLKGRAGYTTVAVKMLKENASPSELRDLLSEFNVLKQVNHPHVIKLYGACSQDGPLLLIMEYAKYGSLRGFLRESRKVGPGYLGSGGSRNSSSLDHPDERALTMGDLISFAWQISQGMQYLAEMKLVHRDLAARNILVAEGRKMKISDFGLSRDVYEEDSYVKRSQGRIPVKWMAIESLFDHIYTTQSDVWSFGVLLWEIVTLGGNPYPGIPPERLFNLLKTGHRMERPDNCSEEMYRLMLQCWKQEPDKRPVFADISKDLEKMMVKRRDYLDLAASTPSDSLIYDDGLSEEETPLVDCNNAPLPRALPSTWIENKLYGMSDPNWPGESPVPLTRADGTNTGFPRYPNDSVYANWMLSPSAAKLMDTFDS
Experiment: Cell proliferation assay (CellTiter-Glo, 72 hours)
Format: cell-based
Conditions: anti-cell proliferation, read-out: BaF3 KIF5B-RET_V804M IC50
observation-type: GI50 (nM)
Answer with a number only, understood to be in nM.

C[C@H]1CNC(=O)c2cnn3cc4c(nc23)N(Cc2cc(F)cnc2O1)[C@@H]1CC[C@@H]1O4 [Compound 8] :: 1930
O=C1NC2(CCCC2)COc2ncc(F)cc2CN2c3nc4c1cnn4cc3O[C@H]1CCC[C@H]12 [Compound 26] :: 5000

Please turn your attention to the following entry.
Hello, please tell me recorded GI50 for this one: O=C1N[C@H](C(F)F)COc2ncc(F)cc2CN2c3nc4c1cnn4cc3O[C@H]1CCC[C@H]12 [Compound 47]
469
